measurement kind: MIC (µg/mL)
Numeric only. Scale: µg/mL

Data request: Item: CCCC[C@@H]1C[C@@H](NC(=O)Cc2ccccn2)[C@]2(O)O[C@@H]3[C@@H](NC)[C@@H](O)[C@@H](NC)[C@H](O)[C@H]3O[C@@H]2O1 [TroSPA (4)] Test system: S. pneumoniae R6 Read-out: MIC Value: ?
Data returned: 16

Data request: Item: CCCC[C@@H]1C[C@@H](N)[C@]2(O)O[C@@H]3[C@@H](NC)[C@@H](O)[C@@H](NC)[C@H](O)[C@H]3O[C@@H]2O1 [Amino TroSPC (11)] Test system: S. pneumoniae R6 Read-out: MIC Value: ?
Data returned: 64

Data request: Item: CN[C@@H]1[C@H](O)[C@H](NC)[C@H]2O[C@@]3(O)C(=O)C[C@@H](C)O[C@H]3O[C@@H]2[C@H]1O [SPC (1), spectinomycin] Test system: S. pneumoniae R6 Read-out: MIC Value: ?
Data returned: 16

Data request: Item: CCCCC1CC(O)(CNCCc2ccc(F)cc2)C2(O)OC3C(NC)C(O)C(NC)C(O)C3OC2O1 (stereo not shown) [eAmTroSPC (8)] Test system: S. pneumoniae R6 Read-out: MIC Value: ?
Data returned: 8

Data request: Item: CCCC[C@@H]1CC(=O)[C@]2(O)O[C@@H]3[C@@H](NC)[C@@H](O)[C@@H](NC)[C@H](O)[C@H]3O[C@@H]2O1 [TroSPC (2), trospectomycin, reference compound] Test system: S. pneumoniae R6 Read-out: MIC Value: ?
Data returned: 4

Data request: Item: CCCCC1CC(O)(CNCc2ccc(F)cc2)C2(O)OC3C(NC)C(O)C(NC)C(O)C3OC2O1 (stereo not shown) [bAmTroSPC (6)] Test system: S. pneumoniae R6 Read-out: MIC Value: ?
Data returned: 4
